Values were extracted from PubChem BioAssay (NCI).

Each entry below carries its reported growth.
test system: EKVX NSCLC; assay: NCI-60 one-dose screen, 48 h (100 = growth as untreated, 0 = no growth, -100 = all killed); details: 10 µM unless noted
The panel holds about 83,000 compounds, 20% with a hit somewhere; the sample as a whole holds those more often.
// units = %; emit number, no label

Example cases with answers are listed next.
{"columns": ["Compound", "Units symbol", "growth"],
 "data": [
  ["CC(C)=CCCC(C)c1ccc(C)c2c1OCN(CC1CCNCC1)C2 (stereo unspecified)", "%", 93],
  ["O=C1OC(Oc2ccccc2)(c2ccccc2)c2ccccc21 (stereo unspecified)", "%", 133]
]}

Query: // fetch EKVX NSCLC growth for CC1(C)CC2(C)CC(=O)C1C(C(=O)O)C2C(=O)O (stereo unspecified)
Response: 121

Query: // fetch EKVX NSCLC growth for COc1cc(C2=NN(C=O)C(c3cccc(Nc4ccnc5cc(Cl)ccc45)c3)C2)cc(OC)c1OC (stereo unspecified)
Response: 79.3

Query: // fetch EKVX NSCLC growth for CC(NC(N)=S)c1ccccc1 (stereo unspecified)
Response: 103

Query: // fetch EKVX NSCLC growth for COc1cccc(/C=N/Nc2nc3ccccc3s2)c1OC
Response: 95.7

Query: // fetch EKVX NSCLC growth for O=C(C(=O)c1cc(Br)ccc1O)c1cc(Br)ccc1O
Response: 88.2
